Measured values drawn from paper PMC12551014 for this set.

target.system: murine sEH (Mus musculus)
Sequence (P34914 whole entry): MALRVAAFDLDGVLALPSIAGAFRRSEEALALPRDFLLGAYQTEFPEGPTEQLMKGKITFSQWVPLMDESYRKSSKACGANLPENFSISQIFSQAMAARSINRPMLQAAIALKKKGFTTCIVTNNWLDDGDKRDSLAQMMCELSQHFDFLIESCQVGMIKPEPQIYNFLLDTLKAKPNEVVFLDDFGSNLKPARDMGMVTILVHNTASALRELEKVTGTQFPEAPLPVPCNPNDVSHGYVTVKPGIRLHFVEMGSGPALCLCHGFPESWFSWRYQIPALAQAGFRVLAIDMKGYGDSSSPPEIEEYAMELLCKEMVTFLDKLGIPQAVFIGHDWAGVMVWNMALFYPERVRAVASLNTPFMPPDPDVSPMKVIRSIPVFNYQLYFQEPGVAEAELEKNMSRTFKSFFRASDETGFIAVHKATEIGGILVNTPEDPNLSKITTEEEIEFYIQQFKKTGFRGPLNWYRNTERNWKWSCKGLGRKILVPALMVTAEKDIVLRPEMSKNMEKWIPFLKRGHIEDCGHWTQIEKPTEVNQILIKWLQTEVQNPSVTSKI
Class (by IC50) -- low: < 2 nM; moderate: ≥ 2 nM and < 4 nM; high: ≥ 4 nM

Where would CC(=O)N1CCC(NC(=O)NC23CC4CC(C)(CC(C2)c2c(F)cccc24)C3)CC1 (stereo not drawn) land among the classes by reported IC50?
low

Which class is correct for the following molecule? COc1cc2c(cc1OC)C1CC3(F)CC2CC(NC(=O)NC2CCN(C(=O)C4CCOCC4)CC2)(C1)C3
moderate

----------
assay.text: Pharmacokinetic study in plasma and brain, subcutaneous
Type: in vivo, male CD1 mice
condition.set: male, CD1, mouse, plasma, sc, 5 mg/kg
reported.endpoint: Cmax (ng/mL)
Give bare numbers, in ng/mL.

Given COc1cc2c(cc1OC)C1CC3(F)CC2CC(NC(=O)NC2CCN(C(=O)C4CCOCC4)CC2)(C1)C3 , respond with its Cmax.
1600

----------
target.system: human sEH (Homo sapiens, UniProt P34913)
Sequence (P34913 1-555): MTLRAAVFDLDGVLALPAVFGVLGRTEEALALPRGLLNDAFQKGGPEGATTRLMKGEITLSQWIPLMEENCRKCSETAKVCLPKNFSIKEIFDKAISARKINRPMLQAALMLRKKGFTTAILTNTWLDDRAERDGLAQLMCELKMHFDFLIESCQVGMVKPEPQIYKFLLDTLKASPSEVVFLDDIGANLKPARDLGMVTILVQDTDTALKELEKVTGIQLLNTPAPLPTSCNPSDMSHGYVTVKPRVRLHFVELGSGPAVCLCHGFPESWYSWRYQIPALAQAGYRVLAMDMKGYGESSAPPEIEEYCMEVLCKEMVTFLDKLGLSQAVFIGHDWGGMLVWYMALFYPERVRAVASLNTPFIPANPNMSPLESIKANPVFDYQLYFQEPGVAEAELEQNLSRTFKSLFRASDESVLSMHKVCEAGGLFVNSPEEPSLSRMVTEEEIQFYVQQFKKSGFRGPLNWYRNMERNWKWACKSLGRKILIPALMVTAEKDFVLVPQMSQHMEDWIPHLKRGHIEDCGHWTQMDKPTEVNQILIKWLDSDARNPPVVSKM
pIC50: −log10 of the molar value.
Parameter threshold = 8. Response is 1 (yes) when pIC50 meets or exceeds it, else 0 (no).

Reference set (2 entries):
>>> df
                                   compound                             target_system  class_assignment
0  COc1cc2c(cc1OC)C1CC3(C)CC2CC(NC(=O)NC2CCN(C(=O)C4CCOCC4)CC2)(C1)C3 [Compound 20]  human sEH (Homo sapiens, UniProt P34913)           1 (yes)
1  COc1cc2c(cc1OC)C1CC3(C)CC2CC(NC(=O)NC2CCN(C(C)=O)CC2)(C1)C3 [Compound 19]  human sEH (Homo sapiens, UniProt P34913)           1 (yes)

Evaluate CC(=O)N1CCC(NC(=O)NC23CC4CC(C)(CC(C2)c2cc(N)ccc24)C3)CC1 (centres unmarked) [Compound 18] : pIC50 at minimum 8?
0 (no)

Hi team, for CC(=O)c1ccc2c(c1)C1CC3(C)CC2CC(NC(=O)NC2CCN(C(C)=O)CC2)(C1)C3 (centres unmarked) [Compound 16] , is the recorded pIC50 at or above 8?
1 (yes)

Textbook exercise: given the entry CC(=O)N1CCC(NC(=O)NC23CC4CC(C)(CC(C2)c2cc([N+](=O)[O-])ccc24)C3)CC1 (centres unmarked) [Compound 17] , state whether its pIC50 is greater than or equal to 8.
1 (yes)

----------
Kindly state inhibition at 10 µM for each of the entries shown.
target.system: CYP3A4 (Homo sapiens)
Sequence (P08684 whole entry): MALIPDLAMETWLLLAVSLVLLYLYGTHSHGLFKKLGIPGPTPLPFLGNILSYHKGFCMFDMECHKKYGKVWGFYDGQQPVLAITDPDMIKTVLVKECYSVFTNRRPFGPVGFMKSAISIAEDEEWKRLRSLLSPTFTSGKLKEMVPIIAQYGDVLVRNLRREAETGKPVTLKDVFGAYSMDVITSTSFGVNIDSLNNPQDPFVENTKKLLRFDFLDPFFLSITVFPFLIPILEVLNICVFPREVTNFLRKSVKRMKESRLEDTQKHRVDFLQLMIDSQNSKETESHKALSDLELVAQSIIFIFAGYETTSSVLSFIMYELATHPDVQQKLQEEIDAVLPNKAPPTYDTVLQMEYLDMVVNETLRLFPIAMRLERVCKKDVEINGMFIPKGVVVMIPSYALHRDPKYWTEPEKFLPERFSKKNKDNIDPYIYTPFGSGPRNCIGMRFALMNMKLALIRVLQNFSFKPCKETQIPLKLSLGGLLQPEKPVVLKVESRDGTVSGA
assay.text: Cytochrome P450 inhibition assay, CYP3A4
Assay type: biochemical
condition.set: probe dibenzylfluorescein (DBF)
Numbers only, in %.

>>> print(df.to_string())
                                   compound  measure_unit  observed
0  CC(=O)N1CCC(NC(=O)NC23CC4CC(C)(CC(C2)c2cc([N+](=O)[O-])ccc24)C3)CC1 (centres unmarked)             %        10
1  COc1cc2c(cc1OC)C1CC3(F)CC2CC(NC(=O)NC2CCN(C(=O)C4CCOCC4)CC2)(C1)C3             %         1
2  COc1cc2c(cc1OC)C1CC3(C)CC2CC(NC(=O)NC2CCN(C(=O)C4CCOCC4)CC2)(C1)C3             %        43
3  COc1ccc2c(c1)C1CC3(C)CC2CC(NC(=O)NC2CCN(C(C)=O)CC2)(C1)C3 (centres unmarked)             %        12
4  CC(=O)c1ccc2c(c1)C1CC3(C)CC2CC(NC(=O)NC2CCN(C(C)=O)CC2)(C1)C3 (centres unmarked)             %         3
5  COc1cc2c(cc1OC)C1CC3(C)CC2CC(NC(=O)NC2CCN(C(C)=O)CC2)(C1)C3             %        15
6  CC(=O)N1CCC(NC(=O)NC23CC4CC(C)(CC(C2)c2c(F)cccc24)C3)CC1 (centres unmarked)             %         9

Read the next record carefully.
Give reported inhibition at 10 µM value for CC(=O)N1CCC(NC(=O)NC23CC4CC(C)(CC(C2)c2cc(F)ccc24)C3)CC1 (centres unmarked)
13

----------
target.system: UniProtKB P10635
Sequence (P10635 whole entry): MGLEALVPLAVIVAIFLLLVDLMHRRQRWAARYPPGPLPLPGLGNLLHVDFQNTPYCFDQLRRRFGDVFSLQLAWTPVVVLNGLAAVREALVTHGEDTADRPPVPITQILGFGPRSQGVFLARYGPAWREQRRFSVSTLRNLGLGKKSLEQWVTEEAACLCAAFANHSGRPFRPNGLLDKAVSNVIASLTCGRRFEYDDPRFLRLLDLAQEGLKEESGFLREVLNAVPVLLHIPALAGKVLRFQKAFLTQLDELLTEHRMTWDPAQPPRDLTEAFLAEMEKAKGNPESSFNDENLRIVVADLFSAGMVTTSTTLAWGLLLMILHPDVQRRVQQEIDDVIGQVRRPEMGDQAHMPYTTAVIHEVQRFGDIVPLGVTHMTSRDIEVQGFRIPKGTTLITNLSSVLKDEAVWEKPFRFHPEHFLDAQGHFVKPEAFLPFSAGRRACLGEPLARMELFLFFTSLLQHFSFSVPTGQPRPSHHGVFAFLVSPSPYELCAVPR
assay.text: Cytochrome P450 inhibition assay, CYP2D6
Assay type: biochemical
reported.endpoint: inhibition at 10 µM (%)
Numbers only, in %.

In the examples that follow, each entry is paired with its recorded inhibition at 10 µM.
                                   compound  measure_unit  observed
0  COc1cc2c(cc1OC)C1CC3(C)CC2CC(NC(=O)NC2CCN(C(=O)C4CCOCC4)CC2)(C1)C3             %        36
1  CC(=O)N1CCC(NC(=O)NC23CC4CC(C)(CC(C2)c2cc(F)ccc24)C3)CC1 (centres unmarked)             %         5
2  CC(=O)N1CCC(NC(=O)NC23CC4CC(C)(CC(C2)c2c(F)cccc24)C3)CC1 (centres unmarked)             %         1
3  COc1ccc2c(c1)C1CC3(C)CC2CC(NC(=O)NC2CCN(C(C)=O)CC2)(C1)C3 (centres unmarked)             %         8
4  COc1cc2c(cc1OC)C1CC3(F)CC2CC(NC(=O)NC2CCN(C(=O)C4CCOCC4)CC2)(C1)C3             %        15
5  CC(=O)N1CCC(NC(=O)NC23CC4CC(C)(CC(C2)c2cc([N+](=O)[O-])ccc24)C3)CC1 (centres unmarked)             %         8
6  COc1cc2c(cc1OC)C1CC3(C)CC2CC(NC(=O)NC2CCN(C(C)=O)CC2)(C1)C3             %         2

Complete the entry with inhibition at 10 µM for CC(=O)c1ccc2c(c1)C1CC3(C)CC2CC(NC(=O)NC2CCN(C(C)=O)CC2)(C1)C3 (centres unmarked)
7

----------
assay.text: Pharmacokinetic study in plasma and brain, subcutaneous
Assay type: in vivo, male CD1 mice
condition.set: male, CD1, mouse, plasma, sc, 5 mg/kg, AUC^inf, male CD1 mice, 5 mg/kg single dose s.c.
reported.endpoint: AUC (ng·h/mL)
Answers are plain numbers, in ng·h/mL.

Complete the entry with AUC for COc1cc2c(cc1OC)C1CC3(F)CC2CC(NC(=O)NC2CCN(C(=O)C4CCOCC4)CC2)(C1)C3
5600

----------
So I've got a bunch of molecules here, and I need their Microsomal stability Mouse, percentage of remaining compound values.
assay.text: Microsomal stability, mouse
Format: in vitro ADME
condition.set: after 60 min, pooled mouse microsomes, NADPH, 37 °C
Answers are plain numbers, in %.

Record Microsomal stability Mouse, percentage of remaining compound per entry; entries follow.
1. CC(=O)c1ccc2c(c1)C1CC3(C)CC2CC(NC(=O)NC2CCN(C(C)=O)CC2)(C1)C3 (centres unmarked)
2. COc1ccc2c(c1)C1CC3(C)CC2CC(NC(=O)NC2CCN(C(C)=O)CC2)(C1)C3 (centres unmarked)

1: 70; 2: 32

Could you report Microsomal stability Mouse, percentage of remaining compound for every entry in the following list?
1. COc1cc2c(cc1OC)C1CC3(C)CC2CC(NC(=O)NC2CCN(C(C)=O)CC2)(C1)C3
2. CC(=O)N1CCC(NC(=O)NC23CC4CC(C)(CC(C2)c2c(F)cccc24)C3)CC1 (centres unmarked)
3. COc1cc2c(cc1OC)C1CC3(F)CC2CC(NC(=O)NC2CCN(C(=O)C4CCOCC4)CC2)(C1)C3
4. CC(=O)N1CCC(NC(=O)NC23CC4CC(C)(CC(C2)c2cc([N+](=O)[O-])ccc24)C3)CC1 (centres unmarked)
5. COc1cc2c(cc1OC)C1CC3(C)CC2CC(NC(=O)NC2CCN(C(=O)C4CCOCC4)CC2)(C1)C3
6. CC(=O)N1CCC(NC(=O)NC23CC4CC(C)(CC(C2)c2cc(F)ccc24)C3)CC1 (centres unmarked)

70
1
86
27
96
4
